Provide the reported perc_remaining of each item.
# assayRemarks: Hepatic microsomal stability, MLM
# Type: in vitro ADME
# studyConditions: In vitro mouse liver microsomal stability
Return type: number; implicit unit %.

Lab note: measured perc_remaining of CC(C)[C@@H](Nc1ncnc2[nH]c(C(=O)N[C@H]3CCN(C)C3)cc12)c1ccc2c(c1)S(=O)(=O)CCC2 (single isomer, unassigned) was 92.0

// sample CC(C)[C@H](Nc1ncnc2[nH]c(-c3cnn(C)c3)cc12)c1ccc2c(c1)S(=O)(=O)CCC2 (single isomer, unassigned) , its perc_remaining was 1.0

Reported perc_remaining for CC(C)(C)[C@@H](Nc1ncnc2[nH]c(-c3cnn(CC(N)=O)c3)cc12)c1ccc2c(n1)OCCO2 was 59.0

----------
# assayTarget: alpha2A (h) (Homo sapiens)
# Construct: purchased Eurofins Cerep (SafetyScreen44), recognised from the panel format
# Sequence (P08913 whole entry): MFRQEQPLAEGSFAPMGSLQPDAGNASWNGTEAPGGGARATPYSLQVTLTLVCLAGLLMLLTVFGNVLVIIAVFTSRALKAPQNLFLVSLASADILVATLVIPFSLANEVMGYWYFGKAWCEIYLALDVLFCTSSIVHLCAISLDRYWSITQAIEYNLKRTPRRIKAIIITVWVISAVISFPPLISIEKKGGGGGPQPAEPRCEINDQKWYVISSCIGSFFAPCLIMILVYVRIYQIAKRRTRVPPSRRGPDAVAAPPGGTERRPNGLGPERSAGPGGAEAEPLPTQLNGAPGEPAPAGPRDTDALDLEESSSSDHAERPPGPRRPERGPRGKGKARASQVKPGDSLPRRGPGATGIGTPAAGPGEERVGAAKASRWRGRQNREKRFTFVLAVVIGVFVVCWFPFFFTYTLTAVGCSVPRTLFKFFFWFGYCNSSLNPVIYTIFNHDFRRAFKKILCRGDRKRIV
# assayRemarks: In vitro CEREP profiling, alpha2A (h) (antagonist radioligand)
# Assay type: binding
# studyConditions: test compound 10 uM
testReadout: perc_inhibition (% inhibition of the binding of a ligand specific for each target) (%)
State the answer as a number, implicitly in %.

Per the reported alpha2A (h) (Homo sapiens) data, CC(C)[C@H](Nc1ncnc2[nH]ccc12)c1ccc2c(c1)S(=O)(=O)CCC2 has perc_inhibition (% inhibition of the binding of a ligand specific for each target) of 10

Form: item CC(C)[C@@H](Nc1ncnc2[nH]c(-c3cnn(C)c3C#N)cc12)c1ccc2c(n1)OCCO2 ; test system alpha2A (h) (Homo sapiens); perc_inhibition (% inhibition of the binding of a ligand specific for each target): 9

Entry C[C@H](C(=O)O)[C@@H](NC(=O)c1ncnc2[nH]ccc12)c1ccc(Br)cc1 , alpha2A (h) (Homo sapiens) data, perc_inhibition (% inhibition of the binding of a ligand specific for each target) value: 3

The measured perc_inhibition (% inhibition of the binding of a ligand specific for each target) that CC(C)[C@H](Nc1ncnc2[nH]c(-c3cnn(C)c3C#N)cc12)c1ccc2c(n1)OCCO2 showed for alpha2A (h) (Homo sapiens) is 7

The reported alpha2A (h) (Homo sapiens) perc_inhibition (% inhibition of the binding of a ligand specific for each target) of CNCc1cc(-c2cc3c(N[C@@H](c4ccc5c(c4)S(=O)(=O)CCC5)C(C)C)ncnc3[nH]2)co1 is 15

Cn1ncc(-c2cc3c(N[C@@H](c4ccc5c(n4)OCCO5)C(C)(C)C)ncnc3[nH]2)c1C#N on alpha2A (h) (Homo sapiens) gives perc_inhibition (% inhibition of the binding of a ligand specific for each target) = 11

// assay alpha2A (h) (Homo sapiens), entry COc1ccc([C@H](Cc2nnn[nH]2)NC(=O)c2ncnc3[nH]ccc23)cc1 , perc_inhibition (% inhibition of the binding of a ligand specific for each target) value = -1

----------
# Tested on: CYP
# assayRemarks: CYP inhibition
# Format: in vitro ADME
# studyConditions: isoform 3A4; In vitro CYP inhibition pooled
testReadout: pIC50
pIC50 here is simply -log10 of the concentration when that concentration is written in mol/L.

The compound identified as CC(C)[C@H](Nc1ncnc2[nH]c(-c3cnn(C)c3C#N)cc12)c1ccc2c(n1)OCCO2 registered its pIC50 at 5.43

Lab book: pIC50 of CC(C)[C@@H](Nc1ncnc2[nH]c(-c3cnn(C)c3C#N)cc12)c1ccc2c(n1)OCCO2 noted as 5.68

Looking up CC(C)[C@H](Nc1ncnc2[nH]ccc12)c1ccc2c(c1)S(=O)(=O)CCC2 , I found its pIC50 recorded as 5.49

For this compound ( CNCc1cc(-c2cc3c(N[C@@H](c4ccc5c(c4)S(=O)(=O)CCC5)C(C)C)ncnc3[nH]2)co1 ), measured pIC50 is 5.74

----------
# assayTarget: NaV1.5 (Homo sapiens)
# Sequence (Q14524 whole entry): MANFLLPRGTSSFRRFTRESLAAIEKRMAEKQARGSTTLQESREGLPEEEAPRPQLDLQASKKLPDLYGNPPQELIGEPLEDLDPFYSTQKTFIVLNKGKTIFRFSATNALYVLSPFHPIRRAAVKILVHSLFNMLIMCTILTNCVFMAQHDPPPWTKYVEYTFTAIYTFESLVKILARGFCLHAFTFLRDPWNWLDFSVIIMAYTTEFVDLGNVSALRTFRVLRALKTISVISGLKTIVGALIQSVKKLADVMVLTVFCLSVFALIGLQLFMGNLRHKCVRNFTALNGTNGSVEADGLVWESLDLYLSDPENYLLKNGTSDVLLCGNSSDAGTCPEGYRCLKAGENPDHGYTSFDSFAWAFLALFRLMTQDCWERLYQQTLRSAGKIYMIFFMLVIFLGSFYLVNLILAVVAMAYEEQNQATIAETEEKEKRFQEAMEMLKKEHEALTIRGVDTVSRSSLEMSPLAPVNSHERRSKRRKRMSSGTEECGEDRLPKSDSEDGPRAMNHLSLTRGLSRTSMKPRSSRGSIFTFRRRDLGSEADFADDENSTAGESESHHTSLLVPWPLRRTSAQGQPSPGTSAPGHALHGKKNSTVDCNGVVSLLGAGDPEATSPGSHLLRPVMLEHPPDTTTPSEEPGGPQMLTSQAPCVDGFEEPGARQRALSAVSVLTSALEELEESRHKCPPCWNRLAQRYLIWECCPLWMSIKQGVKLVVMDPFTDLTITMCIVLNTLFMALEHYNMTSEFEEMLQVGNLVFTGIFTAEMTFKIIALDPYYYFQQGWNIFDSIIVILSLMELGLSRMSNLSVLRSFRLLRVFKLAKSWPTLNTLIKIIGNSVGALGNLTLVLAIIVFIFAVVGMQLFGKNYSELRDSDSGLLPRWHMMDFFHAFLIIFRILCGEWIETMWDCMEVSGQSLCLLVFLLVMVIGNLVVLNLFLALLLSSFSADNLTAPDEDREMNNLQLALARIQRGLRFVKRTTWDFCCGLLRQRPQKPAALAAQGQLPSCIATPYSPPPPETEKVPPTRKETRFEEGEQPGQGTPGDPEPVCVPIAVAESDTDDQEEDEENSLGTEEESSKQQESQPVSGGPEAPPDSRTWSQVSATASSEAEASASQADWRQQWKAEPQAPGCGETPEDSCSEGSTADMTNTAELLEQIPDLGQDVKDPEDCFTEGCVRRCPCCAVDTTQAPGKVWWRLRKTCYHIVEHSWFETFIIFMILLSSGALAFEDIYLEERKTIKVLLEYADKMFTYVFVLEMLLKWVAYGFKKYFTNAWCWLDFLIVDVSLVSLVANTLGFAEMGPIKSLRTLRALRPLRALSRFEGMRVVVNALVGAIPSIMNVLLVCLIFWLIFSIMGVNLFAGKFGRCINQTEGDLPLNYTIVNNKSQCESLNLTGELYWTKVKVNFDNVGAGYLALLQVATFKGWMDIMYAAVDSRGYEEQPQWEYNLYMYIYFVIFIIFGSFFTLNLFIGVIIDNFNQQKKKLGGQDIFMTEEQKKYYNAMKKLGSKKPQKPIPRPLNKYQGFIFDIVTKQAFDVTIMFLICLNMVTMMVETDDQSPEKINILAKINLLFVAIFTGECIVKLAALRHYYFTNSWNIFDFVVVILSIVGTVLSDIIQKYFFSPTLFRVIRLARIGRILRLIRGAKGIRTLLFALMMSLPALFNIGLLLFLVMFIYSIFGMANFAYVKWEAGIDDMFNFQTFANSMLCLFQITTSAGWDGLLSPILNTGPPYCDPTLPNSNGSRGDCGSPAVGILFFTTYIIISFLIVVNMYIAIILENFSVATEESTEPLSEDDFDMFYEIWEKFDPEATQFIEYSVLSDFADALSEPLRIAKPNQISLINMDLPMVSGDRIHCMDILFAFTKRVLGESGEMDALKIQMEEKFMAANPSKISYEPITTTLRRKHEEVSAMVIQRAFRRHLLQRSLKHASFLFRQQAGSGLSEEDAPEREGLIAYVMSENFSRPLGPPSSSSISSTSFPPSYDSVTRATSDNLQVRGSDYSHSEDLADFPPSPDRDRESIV
# assayRemarks: In vitro NaV1.5 cardiotoxicity
# studyConditions: NaV1.5, use dependent block; top test concentration 30 uM; read-out: perc_inhibition_use_dep_block
testReadout: inhibition at 30 µM (%)
Your answer is read as %, so omit the unit and give the number.

Measured inhibition at 30 µM of CC(C)C(Nc1ncnc2[nH]c(C(=O)NC3CCN(C)C3)cc12)c1ccc2c(c1)S(=O)(=O)CCC2 (stereo not shown) [ASAP-0011198] : 11

----------
Kindly state papp_b_to_a_mean for each of the entries shown.
# assayRemarks: Permeability Papp (AB) MDR1/MDCKII
# studyConditions: In vitro MDR1-MDCKII permeability, B to A, no inhibitor
Reply with just the number (in ×10⁻⁶ cm/s).

Looking up CC(C)[C@H](Nc1ncnc2[nH]c(-c3cnn(C)c3C#N)cc12)c1ccc2c(n1)OCCO2 , I see its papp_b_to_a_mean listed as 5.98

Recorded result, CC(C)[C@H](Nc1ncnc2[nH]c(-c3cnn(CC(N)=O)c3)cc12)c1ccc2c(c1)S(=O)(=O)CCC2 (single isomer, unassigned) , papp_b_to_a_mean: 0.072

Kindly note the recorded papp_b_to_a_mean for CC(C)[C@@H](Nc1ncnc2[nH]c(-c3cnn(C)c3C#N)cc12)c1ccc2c(c1)S(=O)(=O)CCC2 (single isomer, unassigned) , which is 7.5

Entry CNC(=O)c1cc2c(N[C@@H](c3ccc4c(c3)S(=O)(=O)CCC4)C(C)C)ncnc2[nH]1 (single isomer, unassigned) ; papp_b_to_a_mean = 0.72

Consider CC(C)C(Nc1ncnc2[nH]c(C(=O)NC3CCN(C)C3)cc12)c1ccc2c(c1)S(=O)(=O)CCC2 (stereo not shown) . Its measured papp_b_to_a_mean is 0.0474

papp_b_to_a_mean reported for this compound COc1ccc([C@H](Cc2nnn[nH]2)NC(=O)c2ncnc3[nH]ccc23)cc1 : 0.021

Input CC(C)[C@H](Nc1ncnc2[nH]c(-c3cnn(C)c3C#N)cc12)c1ccc2c(n1)NC(=O)CO2 (single isomer, unassigned) . Output papp_b_to_a_mean: 6.5

Record Cn1ncc(-c2cc3c(N[C@@H](c4ccc5c(n4)OCCO5)C(C)(C)C)ncnc3[nH]2)c1C#N , field papp_b_to_a_mean: 5.51

The compound CC(C)[C@@H](Nc1ncnc2[nH]c(C(=O)N[C@H]3CCN(C)C3)cc12)c1ccc2c(c1)S(=O)(=O)CCC2 (single isomer, unassigned) showed papp_b_to_a_mean equal to 0.038

Input C[C@H](C(=O)O)[C@@H](NC(=O)c1ncnc2[nH]ccc12)c1ccc(Br)cc1 . Output papp_b_to_a_mean: 0.274

----------
Provide the recorded papp_a_to_b_mean for the entries that follow.
# assayRemarks: Permeability Papp (AB) MDR1/MDCKII
# studyConditions: In vitro MDR1-MDCKII permeability, A to B, mean
Expressed in ×10⁻⁶ cm/s, but write only the number.

The molecule listed as Cn1ncc(-c2cc3c(N[C@@H](c4ccc5c(n4)OCCO5)C(C)(C)C)ncnc3[nH]2)c1C#N [ASAP-0011221] has a reported papp_a_to_b_mean of 14.0

Item: CNC(=O)c1c[nH]c2ncnc(N[C@H](c3ccc4c(c3)NC(=O)CO4)C(C)C)c12 (racemic) [ASAP-0008637] | papp_a_to_b_mean: 4.26

Entry CC(C)[C@@H](Nc1ncnc2[nH]c(-c3cnn(C)c3C#N)cc12)c1ccc2c(c1)S(=O)(=O)CCC2 [ASAP-0008651] — recorded papp_a_to_b_mean = 1.97

For record CC(C(=O)O)C(NC(=O)c1ncnc2[nH]ccc12)c1ccc(Br)cc1 (mixture of isomers) [ASAP-0008445] the listed papp_a_to_b_mean is 1.4

Lab note: CC(C)[C@@H](Nc1ncnc2[nH]c(-c3cnn(C)c3)cc12)c1ccc2c(c1)S(=O)(=O)NCC2 [ASAP-0011192] gave papp_a_to_b_mean of 1.58

Briefly, papp_a_to_b_mean measured for CC(C)[C@H](Nc1ncnc2[nH]c(-c3cnn(C)c3C#N)cc12)c1ccc2c(c1)NC(=O)CO2 (single isomer, unassigned) [ASAP-0013255] : 1.22

papp_a_to_b_mean for CCNC(=O)c1cc2c(N[C@@H](c3ccc4c(c3)S(=O)(=O)NCC4)C(C)C)ncnc2[nH]1 [ASAP-0011076] is 1.96

----------
# assayTarget: Lck kinase (h) (Homo sapiens, UniProt P06239)
# Construct: purchased Eurofins Cerep (SafetyScreen44), recognised from the panel format
# Sequence (P06239 whole entry): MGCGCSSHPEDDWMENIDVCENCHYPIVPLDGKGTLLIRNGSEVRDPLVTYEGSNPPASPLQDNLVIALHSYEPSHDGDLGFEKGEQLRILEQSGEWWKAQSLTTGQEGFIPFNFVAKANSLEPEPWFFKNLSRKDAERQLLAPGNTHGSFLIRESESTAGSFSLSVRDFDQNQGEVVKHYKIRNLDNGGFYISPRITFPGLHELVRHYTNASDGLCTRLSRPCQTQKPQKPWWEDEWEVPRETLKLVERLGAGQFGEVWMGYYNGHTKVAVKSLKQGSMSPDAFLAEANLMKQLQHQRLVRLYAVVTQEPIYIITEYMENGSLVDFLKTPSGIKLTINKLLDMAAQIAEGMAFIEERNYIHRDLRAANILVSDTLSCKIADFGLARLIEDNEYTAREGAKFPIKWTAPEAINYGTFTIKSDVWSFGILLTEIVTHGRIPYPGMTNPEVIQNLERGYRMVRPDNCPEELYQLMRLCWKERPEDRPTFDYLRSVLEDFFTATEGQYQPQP
# assayRemarks: In vitro CEREP profiling, Lck kinase (h)
# Assay type: biochemical
# studyConditions: test compound concentration 10 uM; Enzyme and Cell-based assays
Rule: measured perc_inhibition: % inhibition of control enzyme activity, Lck kinase (h) below 10% gets true; anything equal to or greater than 10% gets false.

Consider the compound Cn1ncc(-c2cc3c(N[C@@H](c4ccc5c(n4)OCCO5)C(C)(C)C)ncnc3[nH]2)c1C#N . Is its perc_inhibition: % inhibition of control enzyme activity, Lck kinase (h) strictly less than 10%?
false

I'd appreciate it if you could check whether CNCc1cc(-c2cc3c(N[C@@H](c4ccc5c(c4)S(=O)(=O)CCC5)C(C)C)ncnc3[nH]2)co1 has perc_inhibition: % inhibition of control enzyme activity, Lck kinase (h) smaller than 10%.
false

Bench note: check whether CC(C)[C@@H](Nc1ncnc2[nH]c(-c3cnn(C)c3C#N)cc12)c1ccc2c(n1)OCCO2 shows perc_inhibition: % inhibition of control enzyme activity, Lck kinase (h) below 10%
false

Bench note: check whether COc1ccc([C@H](Cc2nnn[nH]2)NC(=O)c2ncnc3[nH]ccc23)cc1 shows perc_inhibition: % inhibition of control enzyme activity, Lck kinase (h) below 10%
true

Quick check: does C[C@H](C(=O)O)[C@@H](NC(=O)c1ncnc2[nH]ccc12)c1ccc(Br)cc1 have perc_inhibition: % inhibition of control enzyme activity, Lck kinase (h) under 10%?
true

Lab note: perc_inhibition: % inhibition of control enzyme activity, Lck kinase (h) threshold 10%. Does this compound come in strictly under it? CC(C)[C@H](Nc1ncnc2[nH]c(-c3cnn(C)c3C#N)cc12)c1ccc2c(n1)OCCO2
false
